# measured target: the molecule itself
# assay text: SEC; Superose 6; N-terminally His-tagged full length MsVps4 and mutants at 70 µM, a concentration that induces dodecamer formation; no nucleotide
Each entry below carries its reported stoichiometry N.
Format: numeric value only, no unit, no commentary.

Example proteins with recorded stoichiometry N:
{"columns": ["protein", "stoichiometry N"],
 "data": [
  ["MsVps4 Ile89Glu, full length, N-terminally His-tagged (enzyme, Metallosphera sedula, UniProt A4YHC5 1-369, looked up) MSAQVMLEEMARKYAIAAVRADKEGRREDAINNYKKAIEVLTQIVTLYPDMVARNAYEQMINEYKKRLETLNQMVPEGGEETEKAEEDEVMKEKPKVTLNEIVGLEDVKEALKEAVVYPSKRPDLFPLGWPRGILLYGPPGCGKTMIAAAVANELDSEFIHVDAASIMSKWLGEAEKNVAKIFKTARELSKKENKPAIIFIDELDALLASYTSEVGGEARVRNQFLKEMDGLADKNEISKVYVIGATNKPWRLDEPFLRRFQKRIYITLPDKAHRLELLKHYSSKVKLDPNVNLEELAELTDGYTASDIRDIVQSAHMRVVKEMFEKNLQEPRAINMDDFREVLKVRKPSVNQDMLKAYAAWHEKFKAL", 6],
  ["MsVps4 Met318Ala, full length, N-terminally His-tagged (enzyme, Metallosphera sedula, UniProt A4YHC5 1-369, looked up) MSAQVMLEEMARKYAIAAVRADKEGRREDAINNYKKAIEVLTQIVTLYPDMVARNAYEQMINEYKKRLETLNQMVPEGGEETEKAEEDIVMKEKPKVTLNEIVGLEDVKEALKEAVVYPSKRPDLFPLGWPRGILLYGPPGCGKTMIAAAVANELDSEFIHVDAASIMSKWLGEAEKNVAKIFKTARELSKKENKPAIIFIDELDALLASYTSEVGGEARVRNQFLKEMDGLADKNEISKVYVIGATNKPWRLDEPFLRRFQKRIYITLPDKAHRLELLKHYSSKVKLDPNVNLEELAELTDGYTASDIRDIVQSAHARVVKEMFEKNLQEPRAINMDDFREVLKVRKPSVNQDMLKAYAAWHEKFKAL", 2],
  ["MsVps4 Arg259Ala Arg260Ala, full length, N-terminally His-tagged (enzyme, Metallosphera sedula, UniProt A4YHC5 1-369, looked up) MSAQVMLEEMARKYAIAAVRADKEGRREDAINNYKKAIEVLTQIVTLYPDMVARNAYEQMINEYKKRLETLNQMVPEGGEETEKAEEDIVMKEKPKVTLNEIVGLEDVKEALKEAVVYPSKRPDLFPLGWPRGILLYGPPGCGKTMIAAAVANELDSEFIHVDAASIMSKWLGEAEKNVAKIFKTARELSKKENKPAIIFIDELDALLASYTSEVGGEARVRNQFLKEMDGLADKNEISKVYVIGATNKPWRLDEPFLAAFQKRIYITLPDKAHRLELLKHYSSKVKLDPNVNLEELAELTDGYTASDIRDIVQSAHMRVVKEMFEKNLQEPRAINMDDFREVLKVRKPSVNQDMLKAYAAWHEKFKAL", 2]
]}

Proceeding to the next protein to report its stoichiometry N.
Query: Which value of stoichiometry N has been reported for MsVps4 Ser169Ala, full length, N-terminally His-tagged (enzyme, Metallosphera sedula, UniProt A4YHC5 1-369, looked up) MSAQVMLEEMARKYAIAAVRADKEGRREDAINNYKKAIEVLTQIVTLYPDMVARNAYEQMINEYKKRLETLNQMVPEGGEETEKAEEDIVMKEKPKVTLNEIVGLEDVKEALKEAVVYPSKRPDLFPLGWPRGILLYGPPGCGKTMIAAAVANELDSEFIHVDAASIMAKWLGEAEKNVAKIFKTARELSKKENKPAIIFIDELDALLASYTSEVGGEARVRNQFLKEMDGLADKNEISKVYVIGATNKPWRLDEPFLRRFQKRIYITLPDKAHRLELLKHYSSKVKLDPNVNLEELAELTDGYTASDIRDIVQSAHMRVVKEMFEKNLQEPRAINMDDFREVLKVRKPSVNQDMLKAYAAWHEKFKAL in the records?
Reply: 6
